Experiment: Acute toxicity in Kunming mouse assessed as mortality at 1111 mg/kg, ig observed for 14 days relative to control
Format: organism-based
Details: in vivo, po, read-out: Activity
MEASURED PROPERTY: mortality at 336 h (%)
Answer in %, number only, no unit symbol.

Using the record for "CS(=O)(=O)c1ccc(C(=O)Nc2ccc(Cl)c(-c3ccccn3)c2)c(Cl)c1" , report its mortality at 336 h.
30

###

Target: Protein smoothened (Homo sapiens)
Sequence (Q99835 whole entry): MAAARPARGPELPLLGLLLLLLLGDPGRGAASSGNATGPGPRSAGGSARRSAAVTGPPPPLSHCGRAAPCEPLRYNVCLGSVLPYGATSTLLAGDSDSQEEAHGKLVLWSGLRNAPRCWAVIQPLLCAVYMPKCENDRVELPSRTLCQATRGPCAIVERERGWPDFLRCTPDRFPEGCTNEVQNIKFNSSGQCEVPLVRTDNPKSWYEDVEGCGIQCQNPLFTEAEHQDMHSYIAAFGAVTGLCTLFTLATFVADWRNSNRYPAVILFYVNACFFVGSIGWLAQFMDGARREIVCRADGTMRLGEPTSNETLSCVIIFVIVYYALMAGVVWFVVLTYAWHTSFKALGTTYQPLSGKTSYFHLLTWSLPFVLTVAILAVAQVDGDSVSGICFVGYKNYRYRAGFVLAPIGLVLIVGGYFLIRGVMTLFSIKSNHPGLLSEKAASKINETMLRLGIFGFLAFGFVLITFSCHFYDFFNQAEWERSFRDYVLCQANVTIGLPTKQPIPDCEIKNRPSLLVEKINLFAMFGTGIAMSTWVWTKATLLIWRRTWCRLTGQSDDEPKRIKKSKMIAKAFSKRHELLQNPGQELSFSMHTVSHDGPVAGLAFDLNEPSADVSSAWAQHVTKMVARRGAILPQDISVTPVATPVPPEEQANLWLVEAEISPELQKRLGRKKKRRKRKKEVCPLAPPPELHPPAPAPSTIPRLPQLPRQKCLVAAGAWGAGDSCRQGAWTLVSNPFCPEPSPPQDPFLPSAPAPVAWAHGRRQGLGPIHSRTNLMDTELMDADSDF
Assay: Binding affinity to recombinant human Smo receptor assessed as association rate constant by SPR analysis
Listing of entries alongside the reported Ka.
Unit M⁻¹ s⁻¹ implied. Number only.

>  <COMPOUND>
CS(=O)(=O)c1ccc(C(=O)Nc2ccc(Cl)c(-c3ccccn3)c2)c(Cl)c1

>  <MEASURED TARGET>
Protein smoothened (Homo sapiens)

>  <Ka, M⁻¹ s⁻¹>
179

$$$$
>  <COMPOUND>
O=C(Nc1ccc(Cl)c(-c2nnc3c(Cl)cccn23)c1)c1ccc(C(F)(F)F)cc1F

>  <MEASURED TARGET>
Protein smoothened (Homo sapiens)

>  <Ka, M⁻¹ s⁻¹>
111

$$$$
>  <COMPOUND>
O=C(Nc1ccc(Cl)c(-c2nnc3c(Cl)cccn23)c1)c1ccc(C(F)(F)F)nc1Cl

>  <MEASURED TARGET>
Protein smoothened (Homo sapiens)

>  <Ka, M⁻¹ s⁻¹>
260

$$$$

Consider the compound shown here: "O=C(Nc1ccc(Cl)c(-c2nnc3c(Cl)cccn23)c1)c1ccc(Cl)nc1Cl" What is its recorded Ka?
360

May I ask what Ka has been recorded for "O=C(Nc1ccc(Cl)c(-c2nnc3c(Cl)cccn23)c1)c1cccc(Cl)c1" ?
101
